Provenance of the data: the supplement of paper PMC12667976

B1: library; numbered along this chain (parent)
chain: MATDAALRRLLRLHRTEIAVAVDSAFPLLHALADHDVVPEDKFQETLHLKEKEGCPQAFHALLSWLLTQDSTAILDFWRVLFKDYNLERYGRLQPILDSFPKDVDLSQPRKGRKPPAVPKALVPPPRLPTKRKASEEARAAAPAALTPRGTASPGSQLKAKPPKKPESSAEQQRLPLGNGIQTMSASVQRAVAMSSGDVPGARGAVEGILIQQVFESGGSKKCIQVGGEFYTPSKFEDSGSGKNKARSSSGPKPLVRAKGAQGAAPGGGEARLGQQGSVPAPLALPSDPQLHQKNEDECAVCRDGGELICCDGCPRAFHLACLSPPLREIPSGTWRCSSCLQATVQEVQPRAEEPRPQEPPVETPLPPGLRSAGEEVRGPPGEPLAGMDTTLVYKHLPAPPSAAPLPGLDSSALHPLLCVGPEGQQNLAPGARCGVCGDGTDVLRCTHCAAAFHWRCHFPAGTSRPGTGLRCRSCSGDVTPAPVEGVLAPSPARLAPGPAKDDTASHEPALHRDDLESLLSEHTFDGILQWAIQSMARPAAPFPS

- Variants of: B1
- procedure-details: AIRE transcriptional activation functional score (insulin promoter-GFP; nonsense median 0, synonymous median 1) (normalised score); higher = higher AIRE activity (more reporter activation)
- setup-conditions: with insulin promoter-GFP reporter in HEK293
assay-endpoint: AIRE transcriptional activation functional score
Could you keep your reply to the number by itself?

Data request: // AIRE transcriptional activation functional score lookup, key: L81F
Data returned: 0.331

Data request: // AIRE transcriptional activation functional score lookup, key: Y85K
Data returned: -1.13

Data request: // AIRE transcriptional activation functional score lookup, key: F59I
Data returned: 0.997

Data request: // AIRE transcriptional activation functional score lookup, key: R378L
Data returned: 0.904

Data request: // AIRE transcriptional activation functional score lookup, key: Q44D
Data returned: 0.948

Data request: // AIRE transcriptional activation functional score lookup, key: A145K
Data returned: 0.907

Data request: // AIRE transcriptional activation functional score lookup, key: S64R
Data returned: -0.473

Data request: // AIRE transcriptional activation functional score lookup, key: L511S
Data returned: 0.682

Data request: // AIRE transcriptional activation functional score lookup, key: L341R
Data returned: 1.16

Data request: // AIRE transcriptional activation functional score lookup, key: S412Q
Data returned: 0.66

Data request: // AIRE transcriptional activation functional score lookup, key: P422A
Data returned: 0.724

Data request: // AIRE transcriptional activation functional score lookup, key: V118I
Data returned: 1.01

Data request: // AIRE transcriptional activation functional score lookup, key: R247E
Data returned: 1.52

Data request: // AIRE transcriptional activation functional score lookup, key: L273A
Data returned: 0.967

Data request: // AIRE transcriptional activation functional score lookup, key: A19S
Data returned: 0.921

Data request: // AIRE transcriptional activation functional score lookup, key: D23I
Data returned: 0.125

Data request: // AIRE transcriptional activation functional score lookup, key: A58R
Data returned: 0.31

Data request: // AIRE transcriptional activation functional score lookup, key: S187P
Data returned: 0.621

Data request: // AIRE transcriptional activation functional score lookup, key: C310H
Data returned: 0.624

Data request: // AIRE transcriptional activation functional score lookup, key: Q94F
Data returned: 0.133

Data request: // AIRE transcriptional activation functional score lookup, key: K245T
Data returned: -0.0733

Data request: // AIRE transcriptional activation functional score lookup, key: D389W
Data returned: 0.0908

Data request: // AIRE transcriptional activation functional score lookup, key: D34Q
Data returned: -0.011

Data request: // AIRE transcriptional activation functional score lookup, key: G150H
Data returned: 1.19

Data request: // AIRE transcriptional activation functional score lookup, key: C311R
Data returned: 0.856

Data request: // AIRE transcriptional activation functional score lookup, key: S234L
Data returned: 1.04

Data request: // AIRE transcriptional activation functional score lookup, key: V377D
Data returned: 0.248

Data request: // AIRE transcriptional activation functional score lookup, key: D439V
Data returned: 0.869

Data request: // AIRE transcriptional activation functional score lookup, key: R371S
Data returned: 0.653

Data request: // AIRE transcriptional activation functional score lookup, key: A265Y
Data returned: 1.25

Data request: // AIRE transcriptional activation functional score lookup, key: A202M
Data returned: 1.19

Data request: // AIRE transcriptional activation functional score lookup, key: K83I
Data returned: 0.0909

Data request: // AIRE transcriptional activation functional score lookup, key: A117M
Data returned: 0.838

Data request: // AIRE transcriptional activation functional score lookup, key: L122I
Data returned: 0.612

Data request: // AIRE transcriptional activation functional score lookup, key: L370G
Data returned: 1.08

Data request: // AIRE transcriptional activation functional score lookup, key: Q342S
Data returned: 1.13

Data request: // AIRE transcriptional activation functional score lookup, key: A19L
Data returned: 0.0523

Data request: // AIRE transcriptional activation functional score lookup, key: S411W
Data returned: 1.31

Data request: // AIRE transcriptional activation functional score lookup, key: C446Y
Data returned: -0.213

Data request: // AIRE transcriptional activation functional score lookup, key: W531F
Data returned: 0.12

Data request: // AIRE transcriptional activation functional score lookup, key: A145Y
Data returned: 1.66

Data request: // AIRE transcriptional activation functional score lookup, key: K114V
Data returned: 0.691

Data request: // AIRE transcriptional activation functional score lookup, key: S156Q
Data returned: 0.543

Data request: // AIRE transcriptional activation functional score lookup, key: Q44T
Data returned: 0.288

Data request: // AIRE transcriptional activation functional score lookup, key: P176V
Data returned: 1.54

Data request: // AIRE transcriptional activation functional score lookup, key: S476A
Data returned: 0.905
